Target: SIRT1 (Homo sapiens, UniProt Q96EB6)
Sequence (Q96EB6 whole entry): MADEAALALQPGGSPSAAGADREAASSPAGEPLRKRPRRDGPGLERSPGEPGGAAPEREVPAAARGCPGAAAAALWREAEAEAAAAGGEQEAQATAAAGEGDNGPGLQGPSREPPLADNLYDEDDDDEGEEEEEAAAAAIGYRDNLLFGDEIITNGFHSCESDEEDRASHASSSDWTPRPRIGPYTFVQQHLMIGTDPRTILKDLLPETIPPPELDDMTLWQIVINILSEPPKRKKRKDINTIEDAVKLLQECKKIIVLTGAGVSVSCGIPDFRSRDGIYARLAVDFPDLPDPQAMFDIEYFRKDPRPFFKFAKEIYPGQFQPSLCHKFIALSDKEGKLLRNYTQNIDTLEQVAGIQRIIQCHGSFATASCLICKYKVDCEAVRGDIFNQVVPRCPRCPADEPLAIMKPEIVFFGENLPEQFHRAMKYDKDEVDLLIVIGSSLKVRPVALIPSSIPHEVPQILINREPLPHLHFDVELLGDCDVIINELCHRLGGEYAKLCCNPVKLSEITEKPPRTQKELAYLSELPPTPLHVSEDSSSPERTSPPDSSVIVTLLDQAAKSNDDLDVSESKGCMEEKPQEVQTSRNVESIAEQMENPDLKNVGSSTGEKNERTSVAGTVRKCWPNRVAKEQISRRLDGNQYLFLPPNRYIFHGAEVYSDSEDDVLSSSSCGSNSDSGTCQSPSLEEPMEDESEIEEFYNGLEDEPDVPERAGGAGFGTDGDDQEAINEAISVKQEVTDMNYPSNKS
Experiment: mass spectrometry based SIRT1 deacetylation assay (activation)
Format: biochemical
Conditions: 0.5 μM peptide substrate, 120 μM βNAD+, 10 nM SIRT1, 25 min at 25° C.; NA = not active in the assay
Provide the reported EC1.5 (concentration of test compound that results in 150% activation of SIRT1) of each item.
Give bare numbers, in NM.

Solved cases below.
INSERT INTO assay_data (smiles_text, target_entity, observed) VALUES
  ('O=C(Nc1ccccc1-c1nc2cc(Cn3ccnc3)cnc2s1)c1ccc2ccccc2n1', 'SIRT1 (Homo sapiens, UniProt Q96EB6)', 150),
  ('COCCN1CCN(Cc2cnc3sc(-c4ccccc4NC(=O)c4cccc(-c5ccccc5C(F)(F)F)n4)nc3c2)CC1', 'SIRT1 (Homo sapiens, UniProt Q96EB6)', 230);

Now consider the entry below.
Request: May I ask what EC1.5 (concentration of test compound that results in 150% activation of SIRT1) has been recorded for O=C(Nc1ccccc1-c1nc2cc(CN3CC[C@@H](F)C3)cnc2s1)c1cccc(-c2ccc[n+]([O-])c2)c1 ?
Response: 986

Entry source: patent US8268862B2
